Experiment: Plasma stability, mini pig plasma
Type: in vitro ADME, Mini Pigs
Conditions: 37° C., 0 min
Metric: % Retained (%)

>  <Mol smiles>
CC(=O)OCCN(C)C(=O)n1ccc2c(N(C)[C@H]3CN(C(=O)CC#N)CC[C@H]3C)ncnc21

>  <Units>
%

>  <% Retained>
100.0

$$$$
>  <Mol smiles>
C[C@@H]1CCN(C(=O)CC#N)C[C@@H]1N(C)c1ncnc2c1ccn2C(=O)N(C)CCOC(=O)c1ccncc1

>  <Units>
%

>  <% Retained>
100.0

$$$$
>  <Mol smiles>
C[C@@H]1CCN(C(=O)CC#N)C[C@@H]1N(C)c1ncnc2c1ccn2C(=O)N(C)CCOC(=O)C1CCCCC1

>  <Units>
%

>  <% Retained>
100.0

$$$$
>  <Mol smiles>
C[C@@H]1CCN(C(=O)CC#N)C[C@@H]1N(C)c1ncnc2c1ccn2C(=O)N(C)CCOC(=O)C(C)(C)C

>  <Units>
%

>  <% Retained>
100.0

$$$$
